Source listed as paper PMC8468783.

Hi there, I'd appreciate the recorded pIC50 for every entry that follows.
Target: collagenase from Clostridium histolyticum
Test: In vitro collagenase inhibition assay (spectrophotometric, FALGPA substrate)
Settings: mean ± SD, triplicate; 0.1 U/mL collagenase, 0.8 mM FALGPA, Tricine buffer pH 7.5, 37 °C, 20 min incubation, absorbance at 335 nm; read-out: Anti-collagenase activity IC50
# pIC50: negative log10 of molar concentration; output just the value

Problem: For the compound O=C(O[C@@H]1Cc2c(O)cc(O)cc2O[C@@H]1c1cc(O)c(O)c(O)c1)c1cc(O)c(O)c(O)c1 [EGCG, Epigallocatechin gallate, reference compound] , what pIC50 is on record?
Solution: 4.46

Problem: Try the compound COc1cc(-c2cc(=O)c3c(O)cc(O)c(C4OCC(O)C(O)C4OC4OC(CO)C(O)C(O)C4O)c3o2)ccc1OC(C)=O (stereo not drawn)
Solution: 4.32

Problem: Please give the result for COc1cc(-c2cc(=O)c3c(O)cc(O)c(C4OCC(O)C(O)C4OC4OC(CO)C(OC(C)=O)C(O)C4O)c3o2)ccc1OC(C)=O (stereo not drawn) too.
Solution: 4.44

Problem: // repeat for CC(=O)Oc1ccc(-c2cc(=O)c3c(O)cc(O)c(C4OCC(O)C(O)C4OC4OC(CO)C(O)C(O)C4O)c3o2)cc1O (stereo not drawn) and report
Solution: 4.15

Problem: Input COc1ccc(-c2cc(=O)c3c(O)cc(O)c(C4OCC(O)C(O)C4OC4OC(CO)C(O)C(O)C4O)c3o2)cc1O (stereo not drawn)
Solution: 4.19
